- measured_on: CDK5/CDK5R1 (Homo sapiens, UniProt Q00535)
- Sequence (Q00535 whole entry): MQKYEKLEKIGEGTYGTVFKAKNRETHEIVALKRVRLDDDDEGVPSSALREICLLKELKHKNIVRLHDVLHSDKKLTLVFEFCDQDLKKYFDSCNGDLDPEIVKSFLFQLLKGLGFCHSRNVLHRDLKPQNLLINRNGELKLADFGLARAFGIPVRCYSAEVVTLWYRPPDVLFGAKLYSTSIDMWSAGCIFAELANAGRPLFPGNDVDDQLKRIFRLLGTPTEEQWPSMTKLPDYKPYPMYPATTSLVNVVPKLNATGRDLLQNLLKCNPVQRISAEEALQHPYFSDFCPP
- Sequence (Q15078 whole entry partner): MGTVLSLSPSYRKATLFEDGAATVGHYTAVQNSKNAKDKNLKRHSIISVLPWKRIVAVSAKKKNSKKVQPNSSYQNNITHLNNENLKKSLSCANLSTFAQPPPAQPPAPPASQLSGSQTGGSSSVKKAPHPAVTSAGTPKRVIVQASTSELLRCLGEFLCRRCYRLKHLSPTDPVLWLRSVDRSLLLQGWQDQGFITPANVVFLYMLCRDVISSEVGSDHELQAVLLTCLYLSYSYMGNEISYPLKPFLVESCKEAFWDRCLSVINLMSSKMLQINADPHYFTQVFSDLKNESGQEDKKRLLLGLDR
- assay_name: NanoBRET live-cell target engagement, CDK5-NanoLuc/CDK5R1 in HEK-293
- Type: binding
- recorded_conditions: CDK5/CDK5R1; experiment 2; read-out: Inhibition at 10µM (%)
readout_name: inhibition at 10 µM (%)
The reply should be a number in %, with the unit left off.

Study these solved cases before continuing.
CN1CC[C@H](c2c(O)cc(O)c3c(=O)cc(-c4ccccc4Cl)oc23)[C@H](O)C1    81.1
COc1ccccc1-c1cc(Nc2cccc(CS(N)(=O)=O)c2)ncn1    5.3
CC(C)(C)c1nc(-c2cccc(NS(=O)(=O)c3c(F)cccc3F)c2F)c(-c2ccnc(N)n2)s1    -0.278

Turning to the following compound.
q: Requested field: inhibition at 10 µM. Item: Cn1cc(-c2ccc(-c3cncc(Cl)c3N3CCC4(CCNC4=O)CC3)cc2)cn1
a: 9.2

* * *

- measured_on: CDK4/Cyclin D1 (Homo sapiens, UniProt P11802)
- Sequence (P11802 whole entry): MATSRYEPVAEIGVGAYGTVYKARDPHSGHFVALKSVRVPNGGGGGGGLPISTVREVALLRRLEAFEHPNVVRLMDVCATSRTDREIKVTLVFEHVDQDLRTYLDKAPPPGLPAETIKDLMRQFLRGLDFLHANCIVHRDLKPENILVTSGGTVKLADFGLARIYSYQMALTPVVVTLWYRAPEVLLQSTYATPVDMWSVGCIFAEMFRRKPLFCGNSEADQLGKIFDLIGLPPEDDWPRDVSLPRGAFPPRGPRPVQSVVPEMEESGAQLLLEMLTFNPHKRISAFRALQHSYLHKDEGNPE
- Sequence (P24385 whole entry partner): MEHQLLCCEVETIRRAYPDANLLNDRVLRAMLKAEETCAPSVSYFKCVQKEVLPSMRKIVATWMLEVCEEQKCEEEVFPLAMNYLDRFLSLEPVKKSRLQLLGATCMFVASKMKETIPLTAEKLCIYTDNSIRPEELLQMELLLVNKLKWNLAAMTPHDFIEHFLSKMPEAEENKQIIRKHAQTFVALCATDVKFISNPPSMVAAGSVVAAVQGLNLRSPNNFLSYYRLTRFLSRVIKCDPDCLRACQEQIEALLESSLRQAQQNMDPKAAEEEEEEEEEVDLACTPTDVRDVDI
- assay_name: NanoBRET live-cell target engagement, NanoLuc-CDK4/Cyclin D1 in HEK-293
- Format: binding
- recorded_conditions: CDK4/D1; read-out: IC50 (nM) Replicate 3
readout_name: IC50

q: Requested field: IC50. Item: C[C@H]1CC[C@H](n2c3cnccc3c3cnc(Nc4ccc5c(n4)CCN(C(=O)CO)C5)nc32)CC1
a: 11 nM

* * *

- measured_on: CDK10/Cyclin L2 (Homo sapiens, UniProt Q15131)
- Sequence (Q15131 whole entry): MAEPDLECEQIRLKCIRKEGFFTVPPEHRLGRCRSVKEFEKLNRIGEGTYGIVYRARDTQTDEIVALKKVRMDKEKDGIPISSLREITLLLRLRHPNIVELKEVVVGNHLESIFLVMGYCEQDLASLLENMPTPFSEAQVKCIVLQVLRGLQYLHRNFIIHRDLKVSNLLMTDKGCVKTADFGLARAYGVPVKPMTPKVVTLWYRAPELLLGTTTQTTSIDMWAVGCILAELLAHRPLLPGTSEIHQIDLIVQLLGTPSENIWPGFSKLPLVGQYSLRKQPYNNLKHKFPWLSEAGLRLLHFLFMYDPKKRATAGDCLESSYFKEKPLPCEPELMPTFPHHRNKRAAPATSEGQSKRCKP
- assay_name: NanoBRET live-cell target engagement, CDK10-NanoLuc/Cyclin L2 in HEK-293
- recorded_conditions: 10µM; independent experiment 1
readout_name: CDK10/L2 Inhibition at 10µM (%)
The reply should be a number in %, with the unit left off.

O=C1NC(=NCc2cccs2)S/C1=C\c1ccc2ncccc2c1    6.5
Cc1c(Br)c(Br)c2c3c1nc(N1CCNCC1)n3CCC2.Cl [SEL 120-34A]    26.3
O=C1NCCc2[nH]c(-c3ccncc3)cc21    18.5

Turning to the following compound.
q: Requested field: CDK10/L2 Inhibition at 10µM (%). Item: CN(C)C/C=C/C(=O)Nc1ccc(C(=O)Nc2cccc(Nc3ncc(Cl)c(-c4c[nH]c5ccccc45)n3)c2)cc1
a: 11.4

* * *

Measured inhibition at 10 µM, listed per entry.
- measured_on: CDK1/Cyclin E1 (Homo sapiens, UniProt P06493)
- Sequence (P06493 whole entry): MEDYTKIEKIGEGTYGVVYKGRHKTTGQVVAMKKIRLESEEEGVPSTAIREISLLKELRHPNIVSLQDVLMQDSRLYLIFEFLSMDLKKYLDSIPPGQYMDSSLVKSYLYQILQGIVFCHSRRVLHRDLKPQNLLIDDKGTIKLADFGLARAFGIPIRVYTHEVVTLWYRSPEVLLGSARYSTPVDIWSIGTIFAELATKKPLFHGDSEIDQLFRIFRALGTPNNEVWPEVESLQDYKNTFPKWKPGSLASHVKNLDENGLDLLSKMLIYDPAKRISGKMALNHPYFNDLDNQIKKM
- Sequence (P24864 whole entry partner): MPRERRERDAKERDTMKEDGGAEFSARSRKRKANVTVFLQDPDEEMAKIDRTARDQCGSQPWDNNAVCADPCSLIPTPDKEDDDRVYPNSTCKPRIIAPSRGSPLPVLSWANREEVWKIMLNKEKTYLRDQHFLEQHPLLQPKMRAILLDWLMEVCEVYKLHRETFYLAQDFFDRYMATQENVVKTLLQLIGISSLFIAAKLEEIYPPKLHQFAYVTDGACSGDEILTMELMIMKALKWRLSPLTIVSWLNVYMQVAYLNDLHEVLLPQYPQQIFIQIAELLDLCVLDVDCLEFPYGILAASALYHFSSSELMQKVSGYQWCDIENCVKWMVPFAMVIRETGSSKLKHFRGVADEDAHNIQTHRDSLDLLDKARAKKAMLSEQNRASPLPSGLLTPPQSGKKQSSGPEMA
- assay_name: NanoBRET live-cell target engagement, CDK1-NanoLuc/Cyclin E1 in HEK-293
- Type: binding
- recorded_conditions: CDK1/E1; experiment 1; read-out: Inhibition at 10µM (%)
The reply should be a number in %, with the unit left off.

N#CCNC(=O)c1ccc(-c2ccnc(Nc3ccc(N4CCOCC4)cc3)n2)cc1    32.3
CN1CCN(c2ccc(Nc3ncc4cc(C#N)c(=O)n(C5CCCC5)c4n3)cc2)CC1    20.1
CNC(=O)c1nn(C)c2c1C(C)(C)Cc1cnc(Nc3ccc(N4CCN(C)CC4)cc3)nc1-2    52.9

q: Requested field: inhibition at 10 µM. Item: COC1CN(C(=O)c2ccc3c(N)ncc(-c4ccc(-c5cnn(C)c5)cc4)c3n2)C1
a: 19.7

* * *

Measured IC50, listed per entry.
- measured_on: CDK8/Cyclin C (Homo sapiens, UniProt P49336)
- Sequence (P49336 whole entry): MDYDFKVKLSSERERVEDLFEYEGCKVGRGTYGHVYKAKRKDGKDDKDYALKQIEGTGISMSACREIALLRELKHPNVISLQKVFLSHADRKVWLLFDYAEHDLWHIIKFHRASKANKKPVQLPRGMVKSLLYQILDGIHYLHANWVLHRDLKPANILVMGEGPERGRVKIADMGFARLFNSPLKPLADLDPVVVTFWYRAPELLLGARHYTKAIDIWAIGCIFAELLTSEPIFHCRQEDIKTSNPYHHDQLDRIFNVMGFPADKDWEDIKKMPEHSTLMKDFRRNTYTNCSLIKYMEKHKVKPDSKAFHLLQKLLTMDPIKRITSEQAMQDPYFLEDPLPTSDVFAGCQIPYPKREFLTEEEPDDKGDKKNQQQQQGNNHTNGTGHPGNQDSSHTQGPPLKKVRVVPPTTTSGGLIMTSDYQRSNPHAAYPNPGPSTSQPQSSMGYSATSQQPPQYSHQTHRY
- Sequence (P24863 whole entry partner): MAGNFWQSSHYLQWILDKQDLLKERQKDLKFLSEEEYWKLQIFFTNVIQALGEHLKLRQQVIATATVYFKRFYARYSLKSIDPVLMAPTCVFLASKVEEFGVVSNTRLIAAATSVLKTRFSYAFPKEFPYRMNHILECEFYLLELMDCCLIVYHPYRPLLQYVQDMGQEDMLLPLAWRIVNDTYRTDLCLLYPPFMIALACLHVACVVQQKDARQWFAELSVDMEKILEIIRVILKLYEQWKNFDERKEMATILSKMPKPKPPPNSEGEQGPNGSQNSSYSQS
- assay_name: NanoBRET live-cell target engagement, NanoLuc-CDK8/Cyclin C in HEK-293
- Format: binding
- recorded_conditions: CDK8/C; read-out: IC50 (nM) Replicate 1
The reply should be a number in nM, with the unit left off.

Cc1ncc(-c2ccnc(Nc3ccc(S(C)(=O)=O)cc3)n2)n1C(C)C    330
CCN1CCN(Cc2ccc(NC(=O)Nc3ccc(Oc4cc(NC)ncn4)cc3)cc2C(F)(F)F)CC1    23
CCCCOc1c(C(=O)c2c(F)cc(C)cc2F)c[nH]c2nncc1-2    1.2

Turning to the following compound.
q: Requested field: IC50. Item: CNC1CCN(C(=O)c2ccc(Nc3ncc(F)c(-c4cnc(C)n4C(C)C)n3)cc2)C1 (stereo not shown)
a: 434

* * *

- measured_on: CDK15/Cyclin Y (Homo sapiens)
- Sequence (Q96Q40 whole entry): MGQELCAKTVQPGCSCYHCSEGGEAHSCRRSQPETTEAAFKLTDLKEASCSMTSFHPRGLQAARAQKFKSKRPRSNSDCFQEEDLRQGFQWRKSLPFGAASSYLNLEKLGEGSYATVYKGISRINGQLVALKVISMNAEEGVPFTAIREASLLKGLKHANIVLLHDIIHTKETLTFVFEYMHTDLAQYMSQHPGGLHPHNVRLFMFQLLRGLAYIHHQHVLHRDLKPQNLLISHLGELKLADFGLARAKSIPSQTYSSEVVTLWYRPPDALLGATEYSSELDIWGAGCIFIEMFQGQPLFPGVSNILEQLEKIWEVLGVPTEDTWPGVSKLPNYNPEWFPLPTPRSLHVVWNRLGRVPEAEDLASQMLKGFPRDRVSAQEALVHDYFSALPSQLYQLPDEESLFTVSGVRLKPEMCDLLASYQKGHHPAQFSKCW
- Sequence (Q8ND76 whole entry partner): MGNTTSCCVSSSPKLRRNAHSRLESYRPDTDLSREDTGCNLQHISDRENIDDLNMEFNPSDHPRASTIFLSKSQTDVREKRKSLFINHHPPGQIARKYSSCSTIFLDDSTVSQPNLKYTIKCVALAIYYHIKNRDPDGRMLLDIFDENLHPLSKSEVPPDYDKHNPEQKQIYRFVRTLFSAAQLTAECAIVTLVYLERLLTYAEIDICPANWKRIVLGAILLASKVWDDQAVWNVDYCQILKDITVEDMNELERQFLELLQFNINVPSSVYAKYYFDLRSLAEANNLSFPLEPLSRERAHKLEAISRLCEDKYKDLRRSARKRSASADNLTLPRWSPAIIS
- assay_name: NanoBRET live-cell target engagement, NanoLuc-CDK15/Cyclin Y in HEK-293
- Assay type: binding
- recorded_conditions: CDK15/Y; experiment 1; read-out: IC50
Each record is given criterion met if its reported IC50 is strictly below 300 nM. Records at or above 300 nM are given criterion not met.

CC(C)c1c2cc(-c3ccnc(N[C@H]4CC[C@H](NC5CCOCC5)CC4)n3)ccc2nn1C    criterion not met

q: Dear colleague, could you confirm whether IC50 of COc1ccc(F)cc1-c1cc(NC(=O)C2CCCNC2)ncc1Cl (stereo not drawn) falls below 300 nM? Thanks.
a: criterion not met

q: Can you handle CNc1nc(C)c(-c2nc(Nc3cccc(S(N)(=O)=O)c3)ncc2F)s1 next?
a: criterion met

* * *

- measured_on: CDK11A/Cyclin L2 (Homo sapiens, UniProt Q9UQ88)
- assay_name: NanoBRET live-cell target engagement, CDK11A-NanoLuc/Cyclin L2 in HEK-293
- Type: binding
- recorded_conditions: CDK11a/L2; experiment 1; read-out: Inhibition at 10µM (%)
readout_name: inhibition at 10 µM (%)
The reply should be a number in %, with the unit left off.

Study these solved cases before continuing.
COc1ccc(F)cc1-c1cc(NC(=O)C2CCCNC2)ncc1Cl (centres unmarked)    94.8
Cn1cc(-c2ccc(-c3cncc(Cl)c3N3CCC4(CCNC4=O)CC3)cc2)cn1    -0.8

q: State its inhibition at 10 µM on CDK11A/Cyclin L2 (Homo sapiens, UniProt Q9UQ88): CNC(=O)c1nn(C)c2c1C(C)(C)Cc1cnc(Nc3ccc(N4CCN(C)CC4)cc3)nc1-2
a: 20.3

q: Can you handle CN1CCN(c2ccc(Nc3ncc4cc(C#N)c(=O)n(C5CCCC5)c4n3)cc2)CC1 next?
a: 15.7

q: Can you handle CC(C)c1cnn2c(NCc3ccccc3)cc(NC[C@H]3CCNC[C@@H]3O)nc12 next?
a: 43.2

q: Can you handle CCc1cnn2c(NCc3ccc[n+]([O-])c3)cc(N3CCCC[C@H]3CCO)nc12 next?
a: 36

q: Can you handle CN1CCN(Cc2ccc(NC(=O)Nc3ccc(Oc4ccnc(N)n4)cc3)cc2C(F)(F)F)CC1 next?
a: 19.2

q: Can you handle CC(C)(C)c1nc(-c2cccc(NS(=O)(=O)c3c(F)cccc3F)c2F)c(-c2ccnc(N)n2)s1 next?
a: 2.1

* * *

Measured inhibition at 10 µM, listed per entry.
- measured_on: CDK9/Cyclin K (Homo sapiens, UniProt P50750)
- Sequence (P50750 whole entry): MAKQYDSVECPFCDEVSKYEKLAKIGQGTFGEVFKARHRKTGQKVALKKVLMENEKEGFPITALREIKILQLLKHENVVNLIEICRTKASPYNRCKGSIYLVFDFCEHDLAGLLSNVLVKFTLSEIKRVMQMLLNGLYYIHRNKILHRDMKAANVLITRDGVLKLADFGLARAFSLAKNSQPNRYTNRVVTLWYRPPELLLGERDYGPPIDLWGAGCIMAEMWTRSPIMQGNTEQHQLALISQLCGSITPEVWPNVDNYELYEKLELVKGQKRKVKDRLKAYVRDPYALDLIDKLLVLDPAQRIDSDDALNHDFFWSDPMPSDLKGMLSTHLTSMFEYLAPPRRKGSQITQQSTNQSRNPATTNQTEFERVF
- Sequence (O75909 whole entry partner): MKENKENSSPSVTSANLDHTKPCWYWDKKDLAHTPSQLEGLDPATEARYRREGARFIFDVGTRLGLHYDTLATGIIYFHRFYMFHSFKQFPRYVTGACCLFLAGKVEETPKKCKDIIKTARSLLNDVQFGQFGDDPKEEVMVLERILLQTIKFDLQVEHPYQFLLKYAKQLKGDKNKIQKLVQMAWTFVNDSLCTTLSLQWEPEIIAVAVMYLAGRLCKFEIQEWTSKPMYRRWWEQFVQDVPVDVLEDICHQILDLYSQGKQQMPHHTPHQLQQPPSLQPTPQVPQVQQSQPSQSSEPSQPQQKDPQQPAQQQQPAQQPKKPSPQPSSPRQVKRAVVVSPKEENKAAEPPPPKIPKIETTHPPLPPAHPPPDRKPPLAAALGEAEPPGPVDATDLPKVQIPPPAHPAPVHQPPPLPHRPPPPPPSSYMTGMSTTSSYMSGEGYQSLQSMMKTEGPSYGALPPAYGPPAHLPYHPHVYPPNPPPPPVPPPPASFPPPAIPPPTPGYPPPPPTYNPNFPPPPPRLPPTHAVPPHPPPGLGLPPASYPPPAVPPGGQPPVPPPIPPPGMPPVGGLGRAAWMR
- assay_name: NanoBRET live-cell target engagement, NanoLuc-CDK9/Cyclin K in HEK-293
- Type: binding
- recorded_conditions: CDK9/K; 10µM; average of replicates; read-out: Inhibition at 10µM (%) Average
The reply should be a number in %, with the unit left off.

Study these solved cases before continuing.
CC(C)c1cnn2c(NCc3ccccc3)cc(NCCCCCCN)nc12    35.3
COc1cc(F)ccc1-c1cc(Nc2cc(CS(C)(=N)=O)ccn2)ncc1F (centres unmarked)    99.8
CCCCOc1c(C(=O)c2c(F)cc(C)cc2F)c[nH]c2nncc1-2    26.1
COc1cc(F)ccc1-c1ncnc(Nc2cccc(C[S@](C)(=N)=O)c2)n1    97.9
C[C@H]1CC[C@H](n2c3cnccc3c3cnc(Nc4ccc5c(n4)CCN(C(=O)CO)C5)nc32)CC1    39.8

q: Requested field: inhibition at 10 µM. Item: CCN1CCN(Cc2ccc(NC(=O)Nc3ccc(Oc4cc(NC)ncn4)cc3)cc2C(F)(F)F)CC1
a: 83.3

q: Can you handle O=C(NC1CCNCC1)c1[nH]ncc1NC(=O)c1c(Cl)cccc1Cl next?
a: 98.6

q: Can you handle CCN1CCN(Cc2ccc(Nc3ncc(F)c(-c4cc(F)c5nc(C)n(C(C)C)c5c4)n3)nc2)CC1 next?
a: 84.3

* * *

Measured pIC50, listed per entry.
- measured_on: CDK11A/Cyclin L2 (Homo sapiens, UniProt Q9UQ88)
- Sequence (Q9UQ88 1-783): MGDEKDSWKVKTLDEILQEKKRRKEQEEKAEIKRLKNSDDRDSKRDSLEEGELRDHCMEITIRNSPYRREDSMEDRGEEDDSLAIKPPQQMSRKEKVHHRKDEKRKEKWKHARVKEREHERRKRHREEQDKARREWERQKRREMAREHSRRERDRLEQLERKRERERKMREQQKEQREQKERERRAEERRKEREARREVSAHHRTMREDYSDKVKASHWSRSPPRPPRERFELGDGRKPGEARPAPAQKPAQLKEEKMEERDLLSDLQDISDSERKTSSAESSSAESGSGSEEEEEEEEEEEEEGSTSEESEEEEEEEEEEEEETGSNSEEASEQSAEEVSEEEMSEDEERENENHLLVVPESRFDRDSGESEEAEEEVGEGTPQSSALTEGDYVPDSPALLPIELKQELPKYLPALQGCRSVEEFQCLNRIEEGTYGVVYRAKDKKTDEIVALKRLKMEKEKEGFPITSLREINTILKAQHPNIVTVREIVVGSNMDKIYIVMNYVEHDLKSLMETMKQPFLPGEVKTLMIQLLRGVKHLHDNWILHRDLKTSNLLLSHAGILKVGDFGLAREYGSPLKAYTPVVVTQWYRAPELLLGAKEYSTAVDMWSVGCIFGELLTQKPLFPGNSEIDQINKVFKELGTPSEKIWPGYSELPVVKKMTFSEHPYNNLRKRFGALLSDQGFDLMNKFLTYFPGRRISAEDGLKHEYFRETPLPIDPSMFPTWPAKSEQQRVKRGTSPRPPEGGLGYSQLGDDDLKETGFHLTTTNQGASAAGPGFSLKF
- assay_name: NanoBRET live-cell target engagement, CDK11A-NanoLuc/Cyclin L2 in HEK-293
- Format: binding
- recorded_conditions: independent experiment 1; read-out: CDK11a/L2 IC50
// pIC50 here means minus log10 of the molar concentration (mol/L)

CN1C/C=C/CCOc2cccc(c2)-c2ccnc(n2)Nc2cccc(c2)C1    6.70

q: State its pIC50 on CDK11A/Cyclin L2 (Homo sapiens, UniProt Q9UQ88): CN(C)C/C=C/C(=O)Nc1ccc(C(=O)Nc2cccc(Nc3ncc(Cl)c(-c4c[nH]c5ccccc45)n3)c2)cc1
a: 6.35
